Molecular target: T1, recombinant soluble human TREM2 protein (human TREM2 ECD-FlagHis) (human, UniProt Q9NZC2 19-174)
T1 sequence: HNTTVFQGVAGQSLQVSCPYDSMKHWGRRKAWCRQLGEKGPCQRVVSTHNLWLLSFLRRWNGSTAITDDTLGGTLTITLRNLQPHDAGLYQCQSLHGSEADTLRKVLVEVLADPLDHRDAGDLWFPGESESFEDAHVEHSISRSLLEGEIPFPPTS
Assay: Octet BLI binning; competitor: load Ab 10E3
Friendly reminder: sandwich binding signal below -0.005 is satisfied, at or above is not satisfied.

| binder | assigned_category |
| --- | --- |
| 24F4 (antibody, human IgG2, V domains shown, human IgG2 from hybridoma) VH: EVQLVQSGAEVKKPGESLKISCKGSGYTFTSYWIGWVRQMPGKGLEWMGIIYPGDSDTRYSPSFQGQVTISVDKSSSTAYLQWSSLKASDTAIYYCTRQAIAVTGLGGFDPWGQGTLVTVSS VL: EIVLTQSPGTLSLSPGERATLSCRASQSVSSSYLAWYQQKPGQAPRLLIYGASSRATGIPDRFSGSGSGTDFTLTISRLEPEDFALYYCQQYDTSPFTFGPGTKVDIK | satisfied |
| 32E3 (antibody, human IgG2, V domains shown, human IgG2 from hybridoma) VH: EVQLVQSGAEVKKPGESLKISCKGSGYSFTSYWIGWVRQMPGKGLEWMGIIYPGDSDTRYSPSFQGQVTISADKSISTAYLQWSTLKASDTAIYYCARHDIIPAAPGAFDIWGQGTMVTVSS VL: EFVLTQSPGTLSLSPGERATLSCRASQIISSNYLAWYQQKPGQAPRLLIYSASSRATGIPDRFSGSGSGTDFTLTISRLEPEDFAVYYCQQFDSSPITFGRGTRLDIK | satisfied |
| 6E7 (antibody, human IgG2, V domains shown, human IgG2 from hybridoma) VH: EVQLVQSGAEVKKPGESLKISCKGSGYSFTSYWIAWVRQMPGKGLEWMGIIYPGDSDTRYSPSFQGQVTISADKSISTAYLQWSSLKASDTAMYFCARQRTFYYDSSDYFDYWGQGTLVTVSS VL: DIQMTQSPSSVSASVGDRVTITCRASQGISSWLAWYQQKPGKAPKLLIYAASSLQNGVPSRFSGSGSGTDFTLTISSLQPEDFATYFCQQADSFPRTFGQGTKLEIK | not satisfied |

Exercise: # TODO verify sandwich binding signal < -0.005 strictly for this binder: 5E3 (antibody, human IgG2, V domains shown, human IgG2 from hybridoma) VH: QVQLVQSGAEVKKPGASVKVSCKASGYTFTGYYIHWVRQAPGLGLEWMGWINPYSGGTTSAQKFQGRVTMTRDTSISSAYMELSRLRSDDTAVYYCARDGGYLALYGTDVWGQGTTVTVSS VL: DIQMTQSPSSLSASVGDRVTITCRASQGISNYLAWFQQKPGKAPKSLIYAASSLQSGVPSKFSGSGSGTDFTLTISSLQPEDFATYYCQQYSTYPFTFGPGTKVDIK
Solution: not satisfied

Exercise: # TODO verify sandwich binding signal < -0.005 strictly for this binder: 16B8 (antibody, human IgG4, V domains shown, human IgG4 (G4) from hybridoma) VH: QVQLVQSGAEVKKPGASVKVSCKASGYTFTNYGISWVRQAPGQGLEWMGWISAYNGNTNYAQKLQGRVTMTTDTSTSTVYMELRSLRSDDTAVYYCARRGYSYGSFDYWGQGTLVTVSS VL: DIQMTQSPSSVSASVGDRVTVTCRASQDINSWLAWYQQKPGKAPKLLIYAASSLQTGVPSRFSGSGSGTDFTLTISSLQPEDFATYSCQQSNSFPITFGQGTRLEIK
Solution: not satisfied

Exercise: # TODO verify sandwich binding signal < -0.005 strictly for this binder: 26C10 (antibody, human IgG2, V domains shown, human IgG2 from hybridoma) VH: EVQLVESGGALVQPGGSLRLSCAASGFTFSSFGMSWVRQAPGKGLEWVSYISSSSFTIYYADSVKGRFTISRDNAKNSFYLQMNSLRDEDTAVYFCVREGGITMVRGVSSYGMDVWGQGTTVTVSS VL: SFELTQPPSVSVSPGQTASITCSGDKLGDKYVCWYQQKPGQSPMLVIYQDTKRPSGIPERFSGSNSGNTATLTISGTQAMDEADYYCQAWDSSTVVFGGGTKLTVL
Solution: not satisfied
